Species on record: Homo sapiens
Assay: Selectivity ratio of IC50 for human recombinant N-terminus His6-tagged AKR1B1 to IC50 for human recombinant N-terminus His6-tagged AKR1B10
Recorded measurements of Ratio IC50, one per entry

| molecule | Ratio IC50 |
| --- | --- |
| O=C(/C=C/c1cccc(O)c1)OCCc1ccccc1 | 4 |
| O=C(/C=C/c1ccc(O)cc1)OCc1ccccc1 | 17 |
| COc1cc(O)ccc1/C=C/C(=O)OCCCc1cccc(O)c1 | 790 |
| O=C(/C=C/c1ccccc1)OCCc1ccccc1 [PHENETHYL CINNAMATE] | 1 |
| COc1cc(O)ccc1/C=C/C(=O)OCCc1ccccc1O | 558 |
| COc1cc(O)ccc1/C=C/C(=O)OCCCc1ccccc1 | 688 |
| COc1cc(O)ccc1/C=C/C(=O)OCCc1cccc(O)c1 | 562 |
| COc1cc(O)ccc1/C=C/C(=O)OCCc1ccccc1 | 554 |
| O=C(/C=C/c1ccc(O)c(O)c1)OCc1ccccc1 [BENZYL CAFFEATE] | 2 |
| COc1cc(O)ccc1/C=C/C(=O)OCCc1ccc(O)cc1 | 229 |

---

// reported pIC50 per item
Molecular target: Aldo-keto reductase family 1 member B10 (Homo sapiens)
Sequence (O60218 whole entry): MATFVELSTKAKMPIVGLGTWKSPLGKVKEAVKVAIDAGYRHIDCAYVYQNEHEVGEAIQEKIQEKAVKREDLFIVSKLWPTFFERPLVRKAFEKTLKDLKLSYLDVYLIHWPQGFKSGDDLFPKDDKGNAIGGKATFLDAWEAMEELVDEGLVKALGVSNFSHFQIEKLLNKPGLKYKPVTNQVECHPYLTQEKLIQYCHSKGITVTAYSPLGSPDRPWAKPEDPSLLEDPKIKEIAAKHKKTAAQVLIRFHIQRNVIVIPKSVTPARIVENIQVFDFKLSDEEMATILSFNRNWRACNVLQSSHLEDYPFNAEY
Experiment: Inhibition of human recombinant N-terminus His6-tagged AKR1B10 expressed in Escherichia coli BL21 DE3 assessed as pyridine-3-aldehyde reduction by spectrometric analysis
pIC50: −log10 of the molar value.
assay readout: pIC50

| compound | reported |
| --- | --- |
| O=C(/C=C/c1ccc(O)c(O)c1)OCCc1ccccc1 | 7.10 |
| O=C(/C=C/c1ccc(O)cc1)OCCc1ccccc1 | 7.16 |
| O=C(/C=C/c1ccccc1)OCCc1ccccc1 [PHENETHYL CINNAMATE] | 4.74 |
| O=C(/C=C/c1ccc(O)c(O)c1)O[C@@H]1C[C@](O)(C(=O)O)C[C@@H](OC(=O)/C=C/c2ccc(O)c(O)c2)[C@H]1O (relative stereo) | 6.89 |
| COc1cc(O)ccc1/C=C/C(=O)OCCc1cccc(O)c1 | 7.89 |
| COc1cc(O)ccc1/C=C/C(=O)OCCCc1cccc(O)c1 | 8.21 |
| O=C(/C=C/c1ccc(O)cc1)OCc1ccccc1 | 6.89 |
| O=C(/C=C/c1cccc(O)c1)OCCCc1ccccc1 | 5.51 |
| O=C(/C=C/c1ccc(O)c(O)c1)O[C@@H]1[C@H](O)C[C@@](O)(C(=O)O)C[C@H]1OC(=O)/C=C/c1ccc(O)c(O)c1 (relative stereo) | 6.62 |
| COc1cc(O)ccc1/C=C/C(=O)OCCCc1ccccc1O | 8.05 |
| O=C(O)/C=C/c1ccc(O)c(O)c1 | 4.05 |
| O=C(/C=C/c1ccc(O)cc1)OCCCc1ccccc1 | 7.68 |
| O=C(/C=C/c1ccc(O)c(O)c1)OCc1ccccc1 [BENZYL CAFFEATE] | 6.68 |
| COc1cc(O)ccc1/C=C/C(=O)OCCc1ccc(O)cc1 | 7.85 |
| COc1cc(O)ccc1/C=C/C(=O)OCCCc1ccc(O)cc1 | 7.64 |

---

Target: Aldo-keto reductase family 1 member B1 (Homo sapiens, UniProt P15121)
Assay: Inhibition of human recombinant N-terminus His6-tagged AKR1B1 expressed in Escherichia coli BL21 DE3 assessed as pyridine-3-aldehyde reduction by spectrometric analysis
assay readout: log10 of IC50 (log10 of the value in µM)

| compound | reported |
| --- | --- |
| COc1cc(O)ccc1/C=C/C(=O)OCCc1ccc(O)cc1 | 0.51 |
| COc1cc(O)ccc1/C=C/C(=O)OCCCc1ccc(O)cc1 | 1.04 |
| COc1cc(O)ccc1/C=C/C(=O)OCCCc1cccc(O)c1 | 0.69 |
| O=C(/C=C/c1cccc(O)c1)OCCc1ccccc1 | 1.86 |
| CC(C)OC(=O)/C=C/c1ccc(O)cc1 [ISOPROPYL 3-(4-HYDROXYPHENYL)ACRYLATE] | 0.79 |
| O=C(/C=C/c1ccc(O)c(O)c1)OCCc1ccccc1 [CAFFEIC ACID PHENETHYL ESTER] | -0.24 |
| O=C(/C=C/c1ccccc1)OCCc1ccccc1 [PHENETHYL CINNAMATE] | 1.36 |
| COc1cc(O)ccc1/C=C/C(=O)OCCCc1ccccc1O | 0.84 |
| CC(C)=CCc1cc(/C=C/C(=O)O)cc(CC=C(C)C)c1O [ARTEPILLIN] | 1.36 |
